Target: Oxysterols receptor LXR-beta (Rattus norvegicus)
Sequence (whole entry): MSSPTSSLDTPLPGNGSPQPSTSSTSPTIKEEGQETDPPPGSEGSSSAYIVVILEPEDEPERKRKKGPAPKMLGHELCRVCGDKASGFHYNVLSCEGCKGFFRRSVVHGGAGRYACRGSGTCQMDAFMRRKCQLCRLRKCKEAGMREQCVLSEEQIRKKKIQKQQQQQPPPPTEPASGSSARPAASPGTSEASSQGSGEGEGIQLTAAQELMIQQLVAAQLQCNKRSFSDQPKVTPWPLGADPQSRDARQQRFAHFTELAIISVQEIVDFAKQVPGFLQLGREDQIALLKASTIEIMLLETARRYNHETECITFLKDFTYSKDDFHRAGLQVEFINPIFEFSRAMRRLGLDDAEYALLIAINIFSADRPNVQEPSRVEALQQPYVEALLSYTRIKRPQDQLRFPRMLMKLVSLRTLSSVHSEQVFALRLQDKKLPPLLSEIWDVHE
Assay: Transactivation of rat LXRbeta expressed in HEK293FT cells measured after 14 to 18 hrs by dual-luciferase reporter gene assay relative to T0901317
Type: cell-based
valueKind: Efficacy (%)
Just the number in %, nothing appended.

Efficacy reported for this compound C[C@H](CCC(=O)N1CCCCC1)[C@H]1CC[C@H]2[C@@H]3CC=C4C[C@@H](O)CC[C@]4(C)[C@H]3CC[C@]12C : 134

Efficacy reported for this compound CC(C)NC(=O)CC[C@@H](C)[C@H]1CC[C@H]2[C@@H]3CC=C4C[C@@H](O)CC[C@]4(C)[C@H]3CC[C@]12C : 85

Efficacy reported for this compound CCN(C)C(=O)C(C)C[C@@H](C)[C@H]1CC[C@H]2[C@@H]3CC=C4C[C@@H](O)CC[C@]4(C)[C@H]3CC[C@]12C (stereo in doubt; 11) : 65

Efficacy reported for this compound CC(C)N(C(=O)CC[C@@H](C)[C@H]1CC[C@H]2[C@@H]3CC=C4C[C@@H](O)CC[C@]4(C)[C@H]3CC[C@]12C)C(C)C : 148

Efficacy reported for this compound C[C@H](C[C@@H]1CCCCN(C)C1=O)[C@H]1CC[C@H]2[C@@H]3CC=C4C[C@@H](O)CC[C@]4(C)[C@H]3CC[C@]12C : 80

Efficacy reported for this compound O=S(=O)(c1ccccc1)N(CC(F)(F)F)c1ccc(C(O)(C(F)(F)F)C(F)(F)F)cc1 : 98
